target: TYK2 (aa 871-1187, catalytic domain, GST-tag) (Homo sapiens, UniProt P29597); construct: JAK1 (aa 850-1154) and TYK2 (aa 871-1187) are expressed with an N-terminally fused GST-tag; GST (N); purchased Carna Biosciences, Inc; host or cells: baculovirus expression system; experiment: JAK kinase assay (HTRF, phosphorylation of TK substrate-biotin), TYK2; format: biochemical; conditions: ATP at Km (13 μM); read-out: TYK2 kinase inhibitory activity (EC50 indicator)
quantity: EC50

Here are 3 compounds together with their reported answers.
O=C(N1CCN(c2ncnc3[nH]ccc23)CC12CC2)C1(c2ccccc2)CC1
> 500 nM
O=C(c1cc2ccccc2s1)N1CCN(c2ncnc3[nH]ccc23)CC12CC2
100 to 500 nM
Cn1c(C(=O)N2CCN(c3ncnc4[nH]ccc34)CC23CC3)ccc1S(N)(=O)=O
< 100 nM

I have this compound here, O=C(OCc1ccccc1)N1[C@@H]2CC[C@H]1CN(c1ncnc3[nH]ccc13)C2 , and I need its recorded EC50. > 500 nM

Follow-up item: O=C(Cc1ccccc1)N1[C@@H]2CC[C@H]1CN(c1ncnc3[nH]ccc13)C2 > 500 nM

---

Property: pEC50; scope: individual compounds
target: JAK1 (aa 850-1154, catalytic domain, GST-tag) (Homo sapiens); construct: JAK1 (aa 850-1154) and TYK2 (aa 871-1187) are expressed with an N-terminally fused GST-tag; GST (N); purchased Carna Biosciences, Inc; host or cells: baculovirus expression system; assay: JAK kinase assay (HTRF, phosphorylation of TK substrate-biotin), JAK1; format: biochemical; conditions: ATP at Km (7 μM); read-out: JAK1 kinase inhibitory activity (EC50 indicator)
pEC50: −log10 of the molar value.

N#Cc1csc(C(=O)N2C3CCC2CN(c2ncnc4[nH]ccc24)C3)c1
> 7.00

Given the compound O=C(N1CCN(c2ncnc3[nH]ccc23)CC12CC2)C1(c2ccccc2)CC1 , what is its reported pEC50? 6.30 to 7.00

Also check N#Cc1ccc(C(F)(F)C(=O)N2[C@@H]3CC[C@H]2CN(c2ncnc4[nH]ccc24)C3)cc1 6.30 to 7.00

Also CN(CCC#N)C(=O)C1(C(=O)N2CCN(c3ncnc4[nH]ccc34)CC23CC3)CC1 , if possible. < 6.30

Then CC#CCOC(=O)N1CCN(c2ncnc3[nH]ccc23)CC12CC2 ? > 7.00

// same read-out, input: O=C(c1ccc2sccc2c1)N1CCN(c2ncnc3[nH]ccc23)CC12CC2 > 7.00

Subsequent entry: O=C1CCC(C(=O)N2CCN(c3ncnc4[nH]ccc34)CC23CC3)CC1 > 7.00

Entry CC(=O)Nc1nc(N2CCN(C(=O)Cc3ccc(C#N)cc3)C3(CC3)C2)c2cc[nH]c2n1 please > 7.00

---

target: JAK3 (catalytic domain, His-tag) (Homo sapiens); construct: All four purified enzymes contain only the catalytic domain; His (N); purchased Carna Biosciences, Inc; host or cells: baculovirus expression system; assay: JAK kinase assay (HTRF, phosphorylation of TK substrate-biotin), JAK3; type: biochemical; conditions: ATP at Km (2 μM); read-out: JAK3 kinase inhibitory activity (EC50 indicator)
Sequence (P52333 822-1111 limits assumed): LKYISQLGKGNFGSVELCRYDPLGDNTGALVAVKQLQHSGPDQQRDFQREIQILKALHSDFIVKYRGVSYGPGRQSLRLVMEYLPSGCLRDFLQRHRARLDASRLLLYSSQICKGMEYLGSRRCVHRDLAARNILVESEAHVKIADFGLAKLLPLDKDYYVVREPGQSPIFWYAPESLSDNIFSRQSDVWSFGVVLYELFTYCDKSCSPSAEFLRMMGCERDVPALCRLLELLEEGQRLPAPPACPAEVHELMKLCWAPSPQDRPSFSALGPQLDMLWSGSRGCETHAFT
pEC50: −log10 of the molar value.
quantity: pEC50

Observe how each entry below is paired with its result.
O=C(NC1CCCCC1)N1[C@@H]2CC[C@H]1CN(c1ncnc3[nH]ccc13)C2
< 6.30
O=C(c1ccc(-c2ccccc2)cc1)N1CCN(c2ncnc3[nH]ccc23)CC12CC2
6.30 to 7.00

Proceed to the following item.
What value of pEC50 on JAK3 (catalytic domain, His-tag) (Homo sapiens) does O=C([C@H]1CC[C@H](O)CC1)N1CCN(c2ncnc3[nH]ccc23)CC12CC2 have? 6.30 to 7.00

---

biological target: JAK1 (aa 850-1154, catalytic domain, GST-tag) (Homo sapiens, UniProt P23458); construct: JAK1 (aa 850-1154) and TYK2 (aa 871-1187) are expressed with an N-terminally fused GST-tag; GST (N); purchased Carna Biosciences, Inc; host or cells: baculovirus expression system; experiment: JAK kinase assay (HTRF, phosphorylation of TK substrate-biotin), JAK1; type: biochemical; settings: HTRF assay, ATP at Km (7 μM); read-out: JAK1 kinase inhibitory activity (EC50 indicator)
Sequence (P23458 850-1154): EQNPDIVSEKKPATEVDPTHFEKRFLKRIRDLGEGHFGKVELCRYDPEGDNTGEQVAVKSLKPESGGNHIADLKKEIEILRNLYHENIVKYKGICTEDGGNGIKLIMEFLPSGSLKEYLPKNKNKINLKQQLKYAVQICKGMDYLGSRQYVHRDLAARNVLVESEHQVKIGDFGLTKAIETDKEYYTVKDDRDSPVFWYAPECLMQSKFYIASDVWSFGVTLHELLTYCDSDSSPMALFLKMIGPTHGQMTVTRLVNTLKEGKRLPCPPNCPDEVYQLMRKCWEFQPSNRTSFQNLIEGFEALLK
pEC50: −log10 of the molar value.
pEC50 values by entry

For orientation, consider the following solved cases.
Cc1c(C(=O)N2[C@H]3CC[C@H]2CN(c2ncnc4[nH]ccc24)C3)sc2ccccc12
> 7.00
Cc1c[nH]c2ncnc(N3CCN(C(=O)Cc4ccc(F)cc4)C4(CC4)C3)c12
6.30 to 7.00

I'd like to know its pEC50. The compound in question is CS(=O)(=O)c1cc(C(=O)N2CCN(c3ncnc4[nH]ccc34)CC23CC3)ccc1F > 7.00

Continue with O=C(c1ccc2[nH]c(=O)ccc2c1)N1[C@@H]2CC[C@@H]1CN(c1ncnc3[nH]ccc13)C2 > 7.00

// query: O=C(c1csc2ccccc12)N1CCN(c2ccnc3[nH]ccc23)CC12CC2 6.30 to 7.00

O=C(c1cccnc1)N1CCN(c2ccnc3[nH]ccc23)CC12CC2 ? 6.30 to 7.00

Input COc1cc(C(=O)N2[C@@H]3CC[C@H]2CN(c2ncnc4[nH]ccc24)C3)ccc1S(N)(=O)=O > 7.00

---

Recorded pEC50 by entry
Biological target: TYK2 (aa 871-1187, catalytic domain, GST-tag) (Homo sapiens)
Construct: JAK1 (aa 850-1154) and TYK2 (aa 871-1187) are expressed with an N-terminally fused GST-tag; GST (N); purchased Carna Biosciences, Inc; host or cells: baculovirus expression system
Sequence (P29597 871-1187): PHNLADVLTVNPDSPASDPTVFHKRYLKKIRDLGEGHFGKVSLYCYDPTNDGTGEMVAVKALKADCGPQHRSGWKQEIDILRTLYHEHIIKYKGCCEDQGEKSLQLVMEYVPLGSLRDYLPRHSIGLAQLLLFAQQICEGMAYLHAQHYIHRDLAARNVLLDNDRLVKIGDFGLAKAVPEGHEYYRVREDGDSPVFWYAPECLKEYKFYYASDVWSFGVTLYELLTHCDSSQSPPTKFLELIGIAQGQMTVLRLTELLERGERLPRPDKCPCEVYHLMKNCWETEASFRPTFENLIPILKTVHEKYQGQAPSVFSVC
Test: JAK kinase assay (HTRF, phosphorylation of TK substrate-biotin), TYK2
Assay type: biochemical
Details: ATP at Km (13 μM); read-out: TYK2 kinase inhibitory activity (EC50 indicator)
pEC50: −log10 of the molar value.

Example entries begin here.
Cc1nccnc1C(=O)N1[C@@H]2CC[C@H]1CN(c1ncnc3[nH]ccc13)C2
< 6.30
N#Cc1ccc(C(=O)N2[C@@H]3CC[C@H]2CN(c2ncnc4[nH]ccc24)C3)cc1
< 6.30
N#Cc1ccc(C(F)(F)C(=O)N2CCN(c3ncnc4[nH]ccc34)CC23CC3)cc1
< 6.30

// switching to the query compound
Query: pEC50; subject: N#Cc1ccc(C(=O)N2CCN(c3ncnc4[nH]ccc34)CC23CC3)s1 > 7.00

---

target: JAK1 (aa 850-1154, catalytic domain, GST-tag) (Homo sapiens, UniProt P23458); construct: JAK1 (aa 850-1154) and TYK2 (aa 871-1187) are expressed with an N-terminally fused GST-tag; GST (N); purchased Carna Biosciences, Inc; host or cells: baculovirus expression system; assay: JAK kinase assay (HTRF, phosphorylation of TK substrate-biotin), JAK1; assay type: biochemical; details: ATP at Km (7 μM); read-out: JAK1 kinase inhibitory activity (EC50 indicator)
pEC50: −log10 of the molar value.
quantity: pEC50

Some molecules with known pEC50 results, for comparison:
N#CCCN1CCC(C(=O)N2CCN(c3ncnc4[nH]ccc34)CC23CC3)CC1 [Example 97]
> 7.00
O=C(Cc1cccs1)N1CCN(c2ncnc3[nH]ccc23)CC12CC2 [Example 190]
> 7.00
N#CC1CCN(C(=O)C2(C(=O)N3CCN(c4ncnc5[nH]ccc45)CC34CC4)CC2)C1 (stereo not shown) [Example 88]
< 6.30

# get_value(readout='pEC50', item= N#Cc1ccc(C(=O)N2CCN(c3ncnc4[nH]ccc34)CC23CC3)cc1 [Example 15] ) > 7.00

Same lookup for CC1CN(C(=O)C2(C#N)CC2)C2(CC2)CN1c1ncnc2[nH]ccc12 (stereo not shown) [Example 149] , please. > 7.00

Cool, now Cc1c[nH]c2ncnc(N3CCN(C(=O)c4cccc(C#N)c4)C4(CC4)C3)c12 [Example 119] < 6.30

What do we get for O=C(C1Cc2ccccc21)N1C2CCC1CN(c1ncnc3[nH]ccc13)C2 (stereo not shown) [Example 132] ? 6.30 to 7.00

---

target: JAK1 (aa 850-1154, catalytic domain, GST-tag) (Homo sapiens); construct: JAK1 (aa 850-1154) and TYK2 (aa 871-1187) are expressed with an N-terminally fused GST-tag; GST (N); purchased Carna Biosciences, Inc; host or cells: baculovirus expression system; test: JAK kinase assay (HTRF, phosphorylation of TK substrate-biotin), JAK1; format: biochemical; conditions: HTRF assay, ATP at Km (7 μM); read-out: JAK1 kinase inhibitory activity (EC50 indicator)
quantity: EC50

CC(C)(C)OC(=O)NCCNS(=O)(=O)c1ccc(C(=O)N2CCN(c3ncnc4[nH]ccc34)CC23CC3)cc1
< 100 nM

What value of measured EC50 is listed for Cc1ccc2sc(C(=O)N3CCN(c4ncnc5[nH]ccc45)CC34CC4)cc2c1 ? < 100 nM

Next up: O=C(c1cccc(OC(F)(F)F)c1)N1CCN(c2ccnc3[nH]ccc23)CC12CC2 100 to 500 nM

Request: CCCS(=O)(=O)Nc1ccc(C(=O)N2CCN(c3ncnc4[nH]ccc34)CC23CC3)cc1 < 100 nM

Please answer likewise for Cc1c[nH]c2ncnc(N3CCN(C(=O)CCCC#N)C4(CC4)C3)c12 > 500 nM

Same question for O=C(c1ccc2[nH]ccc2c1)N1[C@@H]2CC[C@H]1CN(c1ncnc3[nH]ccc13)C2 please. < 100 nM

// same read-out, input: CNS(=O)(=O)c1csc(C(=O)N2CCN(c3ncnc4[nH]ccc34)CC23CC3)c1C < 100 nM
